Where do these numbers come from? They come from patent US6437138B1.

Please respond with reported melting point for every item in the list.
Counter-ions that a name gives are not always drawn.

In the examples that follow, each entry is paired with its recorded melting point.
CN1CCC[C@H]1COc1cncc(-c2cccs2)c1 (as salt: hydrochloride) [Example 6, Dihydrochloride]    201 to 203 °C
CN1CCC[C@H]1COc1cnc(Cl)c(C=Cc2ccncc2)c1 (as salt: hydrochloride) [Example 50, Dihydrochloride]    218 to 222 °C
CN1CCC[C@H]1COc1cncc(C#Cc2ccccc2)c1.Cl.Cl    190 to 192 °C
Cl.Cl.Clc1ncc(OC[C@@H]2CCN2)cc1-c1cncnc1    144 °C (dec.)

Then there is this compound:
Item: "CN1CCC[C@H]1COc1cncc(-c2cccnc2)c1.Cl.Cl" | melting point: 155 to 160 °C
